Test system: Micrococcus luteus
Known MIC of a selection of compounds
The response must be a number in µM with no trailing unit.

CC[C@H](C)[C@H](NC(=O)[C@@H](NC(=O)[C@H](CO)NC(=O)[C@H](C)NC(=O)[C@@H](NC(=O)[C@H](CCCCN)NC(=O)[C@H](CCCCN)NC(=O)[C@@H](NC(=O)[C@@H](NC(=O)[C@H](CC(=O)O)NC(=O)[C@H](Cc1ccccc1)NC(=O)[C@H](CC(C)C)NC(=O)CN)C(C)C)[C@@H](C)CC)C(C)C)C(C)C)C(=O)N[C@@H](CCCCN)C(=O)N[C@@H](CCCCN)C(=O)N[C@@H](CC(C)C)C(N)=O [GLFDVIKKVASVIKKL] : 28.4

// compound CC(C)C[C@H](NC(=O)[C@H](CC(C)C)NC(=O)[C@H](CC(N)=O)NC(=O)[C@H](CO)NC(=O)CNC(=O)[C@@H](NC(=O)[C@H](CCCCN)NC(=O)[C@H](CC(C)C)NC(=O)CNC(=O)[C@@H](NC(=O)[C@H](CCCCN)NC(=O)[C@H](CC(C)C)NC(=O)[C@H](CC(C)C)NC(=O)[C@H](CO)NC(=O)CNC(=O)[C@H](CC(C)C)NC(=O)[C@H](CC(C)C)NC(=O)[C@@H](N)CC(N)=O)[C@@H](C)O)C(C)C)C(N)=O [NLLGSLLKTGLKVGSNLL] , assay Micrococcus luteus, MIC value: 2

###

Tested on: Candida albicans ATCC 90028
Metric: MIC (µM)
Could you give me the number in µM? Just the number is fine.

MIC value, target or system Candida albicans ATCC 90028, for CC(C)C[C@H](NC(=O)[C@H](CCCCN)NC(=O)[C@H](CCCN=C(N)N)NC(=O)[C@H](Cc1ccccc1)NC(=O)[C@H](Cc1ccccc1)NC(=O)[C@H](CCCCN)NC(=O)[C@H](CCCCN)NC(=O)[C@H](Cc1ccccc1)NC(=O)[C@H](CCCN=C(N)N)NC(=O)[C@H](CCCCN)NC(=O)[C@@H](NC(=O)[C@H](CC(C)C)NC(=O)[C@@H](N)CCCCN)C(C)C)C(=O)N[C@@H](CCCCN)C(=O)N[C@@H](CCCCN)C(=O)N[C@@H](CO)C(N)=O : 30.7

###

Test system: Bacillus subtilis ATCC 6633
Test: ≥ marks a high value that may be exact or a test limit, other limits are often not marked, values filed in µg/mL are converted to µM
Reported MIC values are given for each entry in this list.
Phrase the answer as number then unit, nothing more needed.

Reported MIC for CC(C)C[C@H](NC(=O)[C@H](Cc1c[nH]c2ccccc12)NC(=O)CNC(=O)[C@H](CC(C)C)NC(=O)[C@@H](N)Cc1ccccc1)C(=O)N[C@@H](Cc1ccccc1)C(=O)N[C@@H](CCCCN)C(=O)N[C@@H](Cc1c[nH]c2ccccc12)C(=O)N[C@@H](C)C(=O)N[C@@H](Cc1c[nH]c2ccccc12)C(=O)N[C@@H](CCCCN)C(N)=O [FLGWLFKWAWK] was 4.25 µM

The measured MIC associated with CC(=O)N[C@@H](Cc1ccccc1)C(=O)N[C@@H](CCCCN)C(=O)N[C@@H](CC(C)C)C(=O)N[C@@H](CCCCN)C(=O)N[C@@H](CC(C)C)C(=O)N[C@@H](CCCCN)C(=O)N[C@@H](Cc1ccccc1)C(=O)N[C@@H](CO)C(=O)N[C@@H](CC(N)=O)C(=O)N[C@@H](CCCCN)C(=O)N[C@@H](CC(C)C)C(=O)N[C@@H](CCCCN)C(=O)N[C@@H](Cc1c[nH]c2ccccc12)C(=O)N[C@@H](CCCCN)C(=O)N[C@@H](Cc1c[nH]c2ccccc12)C(N)=O [FKLKLKFSNKLKWKW] reads 3.2 µM

Reported MIC for CC[C@H](C)[C@H](N)C(=O)N[C@H](C(=O)N[C@@H](CCCCN)C(=O)N[C@H](C(=O)N[C@H](C(=O)N[C@@H](C)C(=O)N[C@@H](CCCCN)C(=O)N[C@@H](CC(C)C)C(=O)N[C@@H](CC(C)C)C(=O)N[C@@H](CC(N)=O)C(=O)N[C@@H](CCCN=C(N)N)C(=O)N[C@@H](CC(C)C)C(=O)N[C@H](C(=O)N[C@@H](CCCCN)C(=O)N[C@H](C(=O)N[C@@H](CC(C)C)C(=O)N[C@@H](CO)C(=O)N[C@@H](CCCCN)C(=O)O)[C@@H](C)CC)[C@@H](C)O)[C@@H](C)CC)C(C)C)[C@@H](C)O [ITKVIAKLLNRLTKILSK] was 4.7 µM

# compound CC[C@H](C)[C@H](NC(=O)CN)C(=O)N[C@@H](Cc1ccccc1)C(=O)N[C@@H](CO)C(=O)N[C@H](C(=O)N[C@H](C(=O)N[C@@H](Cc1ccccc1)C(=O)N[C@@H](CCCCN)C(=O)N[C@@H](C)C(=O)NCC(=O)N[C@@H](CCCCN)C(=O)NCC(=O)N[C@H](C(=O)N[C@H](C(=O)N[C@H]1CSSC[C@@H](C(=O)O)NC(=O)[C@H](CC(C)C)NC(=O)CNC(=O)[C@H]([C@@H](C)O)NC(=O)[C@H](CC(C)C)NC(=O)CNC1=O)C(C)C)[C@@H](C)CC)C(C)C)[C@@H](C)O [GIFSTVFKAGKGIVCGLTGLC] ; its MIC = 12.5 µM

###

Test system: Staphylococcus aureus ATCC 6538
Metric: MIC (µM)
Kindly provide the numeric value in µM only, without the unit symbol.

Example results:
CC(C)C[C@H](NC(=O)[C@H](CCCCN)NC(=O)[C@H](C)NC(=O)[C@H](CC(C)C)NC(=O)[C@H](CC(C)C)NC(=O)[C@H](CCCCN)NC(=O)[C@H](C)NC(=O)[C@@H](N)Cc1ccccc1)C(=O)N[C@@H](C)C(=O)N[C@@H](CCCCN)C(=O)N[C@@H](C)C(=O)N[C@@H](CCCCN)C(=O)N[C@@H](C)C(N)=O : 72.8
CC[C@H](C)[C@H](N)C(=O)N[C@H](C(=O)N[C@@H](CCCCN)C(=O)N[C@H](C(=O)N[C@H](C(=O)N[C@@H](C)C(=O)N[C@@H](CCCCN)C(=O)N[C@@H](CC(C)C)C(=O)N[C@@H](CC(C)C)C(=O)N[C@@H](CC(N)=O)C(=O)N[C@@H](CCCN=C(N)N)C(=O)N[C@@H](CC(C)C)C(=O)N[C@H](C(=O)N[C@@H](CCCCN)C(=O)N[C@H](C(=O)N[C@@H](CC(C)C)C(=O)N[C@@H](CO)C(=O)N[C@@H](CCCCN)C(=O)O)[C@@H](C)CC)[C@@H](C)O)[C@@H](C)CC)C(C)C)[C@@H](C)O : 5.2

--- query ---
Recorded MIC (molecule CC[C@H](C)[C@H](NC(=O)CN)C(=O)N[C@@H](CCCN=C(N)N)C(=O)N[C@@H](CCCN=C(N)N)C(=O)N[C@H](C(=O)N[C@@H](CC(C)C)C(=O)N[C@@H](CCCN=C(N)N)C(=O)N[C@@H](Cc1ccc(O)cc1)C(=O)NCC(=O)N[C@@H](CCCN=C(N)N)C(=O)N[C@@H](CCCN=C(N)N)C(=O)N[C@@H](CO)C(N)=O)[C@@H](C)CC ): 10

###

Measured MIC, listed per entry.
Tested on: Staphylococcus aureus ATCC 6538P
Test: ≥ marks a high value that may be exact or a test limit, other limits are often not marked, values filed in µg/mL are converted to µM
Give the value in µM but do not write µM after it.

Value of MIC reported for the compound CC(C)C[C@H](NC(=O)[C@H](Cc1c[nH]c2ccccc12)NC(=O)CNC(=O)[C@H](CC(C)C)NC(=O)[C@@H](N)Cc1ccccc1)C(=O)N[C@@H](Cc1ccccc1)C(=O)N[C@@H](CCCCN)C(=O)N[C@@H](Cc1c[nH]c2ccccc12)C(=O)N[C@@H](C)C(=O)N[C@@H](Cc1c[nH]c2ccccc12)C(=O)N[C@@H](CCCCN)C(N)=O is 4.25

###

System: Klebsiella pneumoniae ATCC 700603
Metric: MIC

CC(C)C[C@H](NC(=O)[C@H](Cc1cnc[nH]1)NC(=O)[C@H](Cc1ccc(O)cc1)NC(=O)[C@H](CCCN=C(N)N)NC(=O)[C@H](Cc1ccc(O)cc1)NC(=O)[C@H](CCCCN)NC(=O)[C@@H](N)CCCCN)C(=O)N[C@@H](CCCCN)C(=O)N1CCC[C@H]1C(=O)N[C@@H](Cc1ccccc1)C(=O)N[C@@H](CS)C(=O)N[C@@H](CCCCN)C(=O)N[C@@H](CCCCN)C(=O)O : > 294 µM

The molecule listed as CC[C@H](C)[C@H](NC(=O)[C@H](Cc1ccccc1)NC(=O)[C@H](CO)NC(=O)[C@H](CCCCN)NC(=O)[C@H](CC(C)C)NC(=O)[C@H](CCCCN)NC(=O)[C@H](CCCCN)NC(=O)[C@H](CC(C)C)NC(=O)[C@@H](NC(=O)[C@@H](NC(=O)[C@@H](N)Cc1ccccc1)[C@@H](C)O)[C@@H](C)CC)C(=O)N[C@@H](CCCCN)C(=O)O shows MIC equal to > 64 µM

Values were extracted from DBAASP.
